// provenance: the supplement of paper PMC10567573

B1: RIT1 (parent)
chain: FHALVREIRRKEKEAVLAMEKKSK

# Variants of: B1
# experimental.details: protein stability index of a GFP-peptide fusion (GPS, HEK-293T) (PSI 1-6); higher = more stable;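 also: lentivirally expressed fusions sorted by FACS into six bins by GFP to DsRed ratio, PSI derived from sequencing read proportions per bin multiplied by bin number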
# details: c terminus: a fixed tail appended
reported.property: protein stability index
Write the number on its own, no unit after it.

Request: Entry E12H : reported protein stability index = ?
Result: 2.05

Request: Entry R9M : reported protein stability index = ?
Result: 2.03

Request: Entry E7Y : reported protein stability index = ?
Result: 2.04

Request: Entry R9N : reported protein stability index = ?
Result: 2.23

Request: Entry I8A : reported protein stability index = ?
Result: 2.93

Request: Entry E20F : reported protein stability index = ?
Result: 2.18

Request: Entry R9Y : reported protein stability index = ?
Result: 2.09

Request: Entry H2T : reported protein stability index = ?
Result: 2.55

Request: Entry L4H : reported protein stability index = ?
Result: 2.36

Request: Entry S23K : reported protein stability index = ?
Result: 2.31

Request: Entry H2F : reported protein stability index = ?
Result: 2.73

Request: Entry A15D : reported protein stability index = ?
Result: 2.3

Request: Entry V5D : reported protein stability index = ?
Result: 2.85

Request: Entry A15S : reported protein stability index = ?
Result: 2.52

Request: Entry L17M : reported protein stability index = ?
Result: 1.86

Request: Entry R6E : reported protein stability index = ?
Result: 1.55

Request: Entry E7P : reported protein stability index = ?
Result: 2.58

Request: Entry S23D : reported protein stability index = ?
Result: 1.72

Request: Entry A18F : reported protein stability index = ?
Result: 2.15

Request: Entry R10H : reported protein stability index = ?
Result: 2.18

Request: Entry A15P : reported protein stability index = ?
Result: 2.9

Request: Entry K13W : reported protein stability index = ?
Result: 1.95

Request: Entry R10G : reported protein stability index = ?
Result: 2.06

Request: Entry K21W : reported protein stability index = ?
Result: 2.48

Request: Entry E12K : reported protein stability index = ?
Result: 2.03

Request: Entry R10P : reported protein stability index = ?
Result: 2.31

Request: Entry E14D : reported protein stability index = ?
Result: 1.41

Request: Entry F1K : reported protein stability index = ?
Result: 4.06

Request: Entry V5W : reported protein stability index = ?
Result: 1.77

Request: Entry R9W : reported protein stability index = ?
Result: 2.02

Request: Entry A18N : reported protein stability index = ?
Result: 3.42

Request: Entry E20S : reported protein stability index = ?
Result: 2.53

Request: Entry A3P : reported protein stability index = ?
Result: 1.45

Request: Entry E14M : reported protein stability index = ?
Result: 2.1

Request: Entry V5G : reported protein stability index = ?
Result: 2.14

Request: Entry L17T : reported protein stability index = ?
Result: 2.21

Request: Entry E7R : reported protein stability index = ?
Result: 1.87

Request: Entry A15W : reported protein stability index = ?
Result: 2.02

Request: Entry M19T : reported protein stability index = ?
Result: 1.78

Request: Entry I8T : reported protein stability index = ?
Result: 1.87

Request: Entry A3S : reported protein stability index = ?
Result: 1.42

Request: Entry R10V : reported protein stability index = ?
Result: 2.29

Request: Entry K11R : reported protein stability index = ?
Result: 1.55

Request: Entry A18M : reported protein stability index = ?
Result: 2.08

Request: Entry I8H : reported protein stability index = ?
Result: 2.14

Request: Entry R10T : reported protein stability index = ?
Result: 2.09

Request: Entry E12I : reported protein stability index = ?
Result: 3.76

Request: Entry R6S : reported protein stability index = ?
Result: 2.06

Request: Entry V5A : reported protein stability index = ?
Result: 1.46

Request: Entry K22H : reported protein stability index = ?
Result: 1.57

Request: Entry R9G : reported protein stability index = ?
Result: 2.27

Request: Entry L17D : reported protein stability index = ?
Result: 1.51

Request: Entry K24P : reported protein stability index = ?
Result: 1.17

Request: Entry S23C : reported protein stability index = ?
Result: 2.27

Request: Entry R9Q : reported protein stability index = ?
Result: 2.5

Request: Entry F1N : reported protein stability index = ?
Result: 4.67

Request: Entry E7F : reported protein stability index = ?
Result: 1.82

Request: Entry K24A : reported protein stability index = ?
Result: 1.91

Request: Entry E7D : reported protein stability index = ?
Result: 1.8

Request: Entry H2G : reported protein stability index = ?
Result: 2.83

Request: Entry L17W : reported protein stability index = ?
Result: 1.7

Request: Entry L4M : reported protein stability index = ?
Result: 3.92

Request: Entry K24I : reported protein stability index = ?
Result: 2.5

Request: Entry K24F : reported protein stability index = ?
Result: 1.77

Request: Entry V16E : reported protein stability index = ?
Result: 2.59

Request: Entry K11I : reported protein stability index = ?
Result: 1.55

Request: Entry E12L : reported protein stability index = ?
Result: 1.81

Request: Entry E20D : reported protein stability index = ?
Result: 2.17

Request: Entry A18L : reported protein stability index = ?
Result: 1.66

Request: Entry A18K : reported protein stability index = ?
Result: 2.5

Request: Entry K24D : reported protein stability index = ?
Result: 1.83

Request: Entry K24W : reported protein stability index = ?
Result: 1.24

Request: Entry E12F : reported protein stability index = ?
Result: 1.64

Request: Entry E7V : reported protein stability index = ?
Result: 3.23
